test: Hemolytic activity in erythrocytes (unknown origin) at 250 ug/ml; format: ADME, cell-based, Erythrocyte; settings: read-out: Activity
Peptide text beside a SMILES is read from it. * marks the point of attachment. Decanoyl = CCCCCCCCCC(=O)*
VALUE TYPE: hemolysis at 250 ug/ml (%)
Quick note: give the figure in %, leave out the unit.

Prompt line: For CCCCCCCCCC(=O)NCCCC[C@H](NC(=O)[C@H](Cc1c[nH]c2ccccc12)NC(=O)[C@H](CCCNC(=N)N)NC(=O)[C@H](Cc1c[nH]c2ccccc12)NC(=O)[C@H](CCCNC(=N)N)NC(=O)[C@H](Cc1c[nH]c2ccccc12)NC(=O)[C@@H](N)CCCNC(=N)N)C(=O)O (H-RWRWRWK(Decanoyl)-OH) , what is its reported hemolysis at 250 ug/ml?
Response line: 50

###

system: Pseudomonas aeruginosa; assay: Antibacterial activity against Pseudomonas aeruginosa LES431 clinical isolate after 16 to 20 hrs by microdilution assay; type: functional
Peptide text beside a SMILES is read from it. * marks the point of attachment. Lauroyl = CCCCCCCCCCCC(=O)*
VALUE TYPE: MIC (µg/mL)
Supply the numeric figure in µg/mL, leaving out any unit text.

Prompt line: Using the record for CCCCCCCCCCCC(=O)NCCCC[C@H](NC(=O)[C@H](Cc1c[nH]c2ccccc12)NC(=O)[C@H](CCCNC(=N)N)NC(=O)[C@H](Cc1c[nH]c2ccccc12)NC(=O)[C@H](CCCNC(=N)N)NC(=O)[C@H](Cc1c[nH]c2ccccc12)NC(=O)[C@@H](N)CCCNC(=N)N)C(=O)O (H-RWRWRWK(Lauroyl)-OH) , report its MIC.
Response line: 64

###

Each item that follows carries a reported MIC.
test system: Pseudomonas aeruginosa; experiment: Antibacterial activity against Pseudomonas aeruginosa LES400 clinical isolate after 16 to 20 hrs by microdilution assay; type: functional
Peptide text beside a SMILES is read from it. * marks the point of attachment. Decanoyl = CCCCCCCCCC(=O)*
Return type: number; implicit unit µg/mL.

Example results:
NC[C@H]1O[C@H](O[C@H]2[C@H](O)[C@@H](O[C@H]3O[C@H](CO)[C@@H](O)[C@H](N)[C@H]3O)[C@H](N)C[C@@H]2N)[C@H](N)C[C@@H]1O [TOBRAMYCIN] = 8
CC(C)(O/N=C(\C(=O)N[C@@H]1C(=O)N2C(C(=O)[O-])=C(C[n+]3ccccc3)CS[C@H]12)c1csc(N)n1)C(=O)O [CEFTAZIDIME] = 32
C[C@@H](O)[C@H]1C(=O)N2C(C(=O)O)=C(S[C@@H]3CN[C@H](C(=O)N(C)C)C3)[C@H](C)[C@H]12 [MEROPENEM] = 2

Okay, now this compound:
Prompt line: Which MIC reading was recorded for the compound CCCCCCCCCC(=O)NCCCC[C@H](NC(=O)[C@H](Cc1c[nH]c2ccccc12)NC(=O)[C@H](CCCNC(=N)N)NC(=O)[C@H](Cc1c[nH]c2ccccc12)NC(=O)[C@H](CCCNC(=N)N)NC(=O)[C@H](Cc1c[nH]c2ccccc12)NC(=O)[C@@H](N)CCCNC(=N)N)C(=O)O (H-RWRWRWK(Decanoyl)-OH) ?
Response line: 64

###

test: Hemolytic activity in erythrocytes (unknown origin) at 32 ug/ml; assay type: ADME, cell-based, Erythrocyte; settings: read-out: Activity
Peptide text beside a SMILES is read from it. * marks the point of attachment. Decanoyl = CCCCCCCCCC(=O)*
VALUE TYPE: hemolysis at 32 ug/ml

Prompt line: Fill blank: measured hemolysis at 32 ug/ml of the molecule CCCCCCCCCC(=O)NCCCC[C@H](NC(=O)[C@H](Cc1c[nH]c2ccccc12)NC(=O)[C@H](CCCNC(=N)N)NC(=O)[C@H](Cc1c[nH]c2ccccc12)NC(=O)[C@H](CCCNC(=N)N)NC(=O)[C@H](Cc1c[nH]c2ccccc12)NC(=O)[C@@H](N)CCCNC(=N)N)C(=O)O (H-RWRWRWK(Decanoyl)-OH) is ____.
Response line: < 10%
